Origin of the recorded values: PubChem BioAssay (NCI)

System: MCF7 breast
PROTOCOL_DESCRIPTION: NCI-60 one-dose screen, 48 h
CONDITION_INFO: 10 µM unless noted
Procedure: Growth inhibition of the MCF7 human tumor cell line is measured as a screen for anti-cancer activity. Cells are grown in 96 well plates and exposed to the test compound for 48 hours. Compounds are tested at a single concentration, which is 10^-5 M for most compounds. The reported endpoint is percent growth (GI% or GIPRCNT), where numbers from 0 - 100% represent growth inhibition, and numbers from -100% - 0 represent cell death. For example, a value of 40 represents 60% growth inhibition. […]
This is part of a sample that, as a whole, favours compounds with a hit. Of some 83,000 tested, about 20% had one in any assay. The source made the active and inactive calls. How the source made its calls: active means growth percent below 10; inactive means the rest.
Labels: active, inactive

# COMPOUND, GROUP
data = [
    ("CC1=CC2c3oc(-c4ccccc4)c(C(=O)c4ccccc4)c3CNC2C=C1 (stereo not given)", "inactive"),
    ("COc1ccc(COc2cc3oc(=O)c4cc(C(C)O)ccc4c3cc2OC)cc1 (stereo not given)", "inactive"),
    ("Ic1ccccc1-c1ccccc1", "inactive"),
    ("NC1(C(=O)N[C@@H](CCO)c2ccc(Cl)cc2)CCN(c2ncnc3[nH]ccc23)CC1", "inactive"),
    ("CCN1CCN(CCCN(C[C@H]2Cc3ccccc3CN2)[C@H]2CCCc3cccnc32)CC1", "inactive"),
    ("CC/C(=C(\\c1ccc(OCCN2CCCCCCC2)cc1)c1ccc(OC(=O)C2CCCCC2)cc1)c1ccc(Cl)cc1", "inactive"),
    ("CCCCCCCCCCCC[n+]1ccccc1", "active"),
    ("[2H]C1([2H])[C@H](C)O[C@H](C)C([2H])([2H])N1c1ccc(NC(=O)c2cccc(-c3ccc(OC(F)(F)F)cc3)c2C)cn1", "inactive"),
    ("CC(=O)OC(C(=O)c1ccccc1)c1ccccc1 (stereo not given)", "inactive"),
    ("C[C@H](NC(=O)c1c(N)nn2cccnc12)c1cc2cccc(C#Cc3cnn(C)c3)c2c(=O)n1-c1ccccc1", "active"),
    ("CCN1CCN(c2nc(C)cc(N(CCNc3ccnc4cc(Cl)ccc34)Cc3ccc4c(c3)OCO4)n2)CC1", "inactive"),
    ("Cc1cc(N2CCCC2)nc(N(CCCNc2ccnc3cc(Cl)ccc23)Cc2ccc3c(c2)OCO3)n1", "active"),
    ("CCc1ccc(C2=C(O)C(=O)C(c3ccc(CC)cc3)=C(O)C2=O)cc1", "active"),
    ("CCCCN1C(=O)c2cccc3c(-c4ccc5c(c4)ncn5C4CCCCC4)ccc(c23)C1=O", "inactive"),
    ("COC(=O)c1ccc2c(C(=Nc3ccc(N(C)C(=O)CN4CCN(C)CC4)cc3)c3ccccc3)c(O)[nH]c2c1", "inactive"),
    ("COc1cc(C(=O)NNC(=O)c2ccc(NC(=O)CCl)cc2)cc(OC)c1OC", "inactive"),
    ("O=c1[nH]c(N2CCOCC2)nc2scc(-c3ccccc3)c12", "inactive"),
    ("O=C(Nc1cn[nH]c1-c1nc2ccc(CN3CCOCC3)cc2[nH]1)NC1CC1", "inactive"),
    ("Cc1cc(-c2cc(OC(=O)c3ccccc3)ccc2Cl)cc2nnc(Nc3ccc(OCCN4CCCC4)cc3)nc12", "active"),
    ("CC(=O)NCC(=O)N1[C@@H]2CC[C@H]1c1ccc(Nc3ncc(C(F)(F)F)c(NC4CCC4)n3)cc12", "inactive"),
]
